Recorded inhibition by entry
# subject.of.test: COUP transcription factor 2 (Homo sapiens)
# method: COUP-TFII reporter suppression in human cells – cell-based, luciferase reporter, HEK293T, luminescence, primary screen (AID 686940);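 note: cells cotransfected with COUP-TFII expression vector driving the NGFI-A reporter; 0% = median of COUP-TF2 test wells and 100% = reporter-only cells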
# run.parameters: HEK293T NGFI-A luciferase reporter, at 8.6 µM, active compounds read high
Screen size: about 370,000 compounds; about 2,600 (0.7%) were called active. Many of the other results were omitted from the sample, so actives are more common in it than they were.
observed.property: inhibition (%)

structure.smiles: O=S1(=O)c2ccc(N3CCN(Cc4ccccc4F)CC3)cc2Oc2ccccc2CN1Cc1cn(Cc2ccc(Cl)cc2)nn1
numeric.value: -6.71
//
structure.smiles: C=CCn1c(SCC(N)=O)nnc1-c1ccccc1OC
numeric.value: 9.3
//
structure.smiles: CC(=O)Nc1ccc(-c2csc(NC(=O)Nc3ccccc3)n2)cc1
numeric.value: 60.9
//
structure.smiles: Cc1cc2nnc(SCC(=O)N3CCN(c4ccccc4)CC3)n2c(N)n1
numeric.value: 8.19
//
structure.smiles: O=C(NCCc1c[nH]c2ccccc12)OCc1cn(-c2c(F)cccc2F)nn1
numeric.value: -1.45
//
structure.smiles: c1csc(-c2nnc(SCc3nc4ccccc4[nH]3)o2)c1
numeric.value: -10.7
//
structure.smiles: CCOC(=O)c1csc(NC(=O)Nc2cccc(OC)c2)n1
numeric.value: -7.28
//
structure.smiles: COc1ccc(-c2nnc(SCC(=O)c3ccc4c(c3)OCCO4)o2)cc1
numeric.value: 17.8
